# Test Summary: Tmax in Sprague-Dawley rat at […] measured upto 24 hrs by LC-MS/MS analysis
# Type: ADME, organism-based
# Reported Conditions: in vivo
Recorded Endpoint: Tmax (h)
Kindly provide the numeric value in h only, without the unit symbol.

Enquiry: Give a short answer stating reported Tmax for C=CC(=O)NCCOCCNC(=O)CCN1CCC(c2cc(OC(C)C)c(Nc3ncc(Cl)c(Nc4ccccc4S(=O)(=O)C(C)C)n3)cc2C)CC1 .
Return: 2.67

* * *

# Test Summary: Volume of distribution at steady state in Sprague-Dawley rat at 1 mg/kg, iv measured upto 24 hrs by LC-MS/MS analysis
# Assay type: ADME, organism-based
# Reported Conditions: in vivo, read-out: Vdss
Recorded Endpoint: Vd

Enquiry: Give a short answer stating reported Vd for C=CC(=O)NCCOCCNC(=O)CCN1CCC(c2cc(OC(C)C)c(Nc3ncc(Cl)c(Nc4ccccc4S(=O)(=O)C(C)C)n3)cc2C)CC1 .
Return: 2.81 L/kg

* * *

# Study Target: ALK tyrosine kinase receptor (Homo sapiens, UniProt Q9UM73)
# Test Summary: Inhibition of N-terminal GST tagged human ALK cytoplasmic domain (1058 to 1620 residues) expressed in Sf21 cells by mobility shift assay
# Sequence (Q9UM73 whole entry, the tested form may be a part): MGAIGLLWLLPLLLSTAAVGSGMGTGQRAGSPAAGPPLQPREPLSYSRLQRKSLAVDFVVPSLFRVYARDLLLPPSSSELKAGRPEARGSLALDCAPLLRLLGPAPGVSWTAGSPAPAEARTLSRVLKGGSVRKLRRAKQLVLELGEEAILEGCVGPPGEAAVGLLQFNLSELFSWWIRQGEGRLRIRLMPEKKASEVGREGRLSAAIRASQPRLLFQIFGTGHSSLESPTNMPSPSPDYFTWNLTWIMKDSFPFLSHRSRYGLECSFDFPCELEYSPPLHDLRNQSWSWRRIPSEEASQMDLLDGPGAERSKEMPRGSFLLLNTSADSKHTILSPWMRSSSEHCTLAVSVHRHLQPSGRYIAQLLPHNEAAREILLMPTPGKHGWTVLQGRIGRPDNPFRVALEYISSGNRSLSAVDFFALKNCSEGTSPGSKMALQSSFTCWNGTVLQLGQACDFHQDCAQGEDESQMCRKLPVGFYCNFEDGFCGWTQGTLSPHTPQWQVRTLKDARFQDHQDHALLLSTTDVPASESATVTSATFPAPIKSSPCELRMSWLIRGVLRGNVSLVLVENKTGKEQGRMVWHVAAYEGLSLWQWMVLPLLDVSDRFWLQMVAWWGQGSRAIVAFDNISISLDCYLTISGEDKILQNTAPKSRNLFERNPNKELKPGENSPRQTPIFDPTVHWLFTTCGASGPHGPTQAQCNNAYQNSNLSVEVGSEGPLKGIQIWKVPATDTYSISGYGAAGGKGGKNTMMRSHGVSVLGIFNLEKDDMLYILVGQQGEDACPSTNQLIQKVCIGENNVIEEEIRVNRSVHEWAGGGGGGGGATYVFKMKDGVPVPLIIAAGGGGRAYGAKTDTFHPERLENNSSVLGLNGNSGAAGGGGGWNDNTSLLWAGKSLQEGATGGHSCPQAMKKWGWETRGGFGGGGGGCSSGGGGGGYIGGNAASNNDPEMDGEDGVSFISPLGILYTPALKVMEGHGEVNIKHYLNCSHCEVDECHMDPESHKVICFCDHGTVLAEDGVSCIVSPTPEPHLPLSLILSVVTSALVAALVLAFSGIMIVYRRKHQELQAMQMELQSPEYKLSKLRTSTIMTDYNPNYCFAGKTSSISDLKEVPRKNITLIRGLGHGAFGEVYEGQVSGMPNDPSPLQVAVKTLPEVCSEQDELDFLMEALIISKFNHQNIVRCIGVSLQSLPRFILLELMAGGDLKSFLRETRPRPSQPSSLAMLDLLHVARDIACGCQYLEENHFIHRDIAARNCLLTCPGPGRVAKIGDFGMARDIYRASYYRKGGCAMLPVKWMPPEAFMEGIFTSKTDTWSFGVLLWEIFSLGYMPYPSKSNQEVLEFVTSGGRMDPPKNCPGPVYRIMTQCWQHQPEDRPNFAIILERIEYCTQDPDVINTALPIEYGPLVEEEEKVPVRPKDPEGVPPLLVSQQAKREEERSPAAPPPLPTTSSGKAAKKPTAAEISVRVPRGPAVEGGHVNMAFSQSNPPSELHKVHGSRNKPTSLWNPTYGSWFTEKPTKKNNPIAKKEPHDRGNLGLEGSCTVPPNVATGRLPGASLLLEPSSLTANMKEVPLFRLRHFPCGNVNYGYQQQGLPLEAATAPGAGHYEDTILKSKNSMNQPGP
Recorded Endpoint: pIC50
Field pIC50 (float): negative decimal logarithm of the concentration in molar.

{"Structure String": "CCC(=O)NCCOCCNC(=O)CCN1CCC(c2cc(OC(C)C)c(Nc3ncc(Cl)c(Nc4ccccc4S(=O)(=O)C(C)C)n3)cc2C)CC1", "Recorded Endpoint": "pIC50", "Assay Value": 7.88}

--- query ---
Enquiry: Give a short answer stating reported pIC50 for C=CC(=O)NCCOCCNC(=O)CCN1CCC(c2cc(OC(C)C)c(Nc3ncc(Cl)c(Nc4ccccc4S(=O)(=O)C(C)C)n3)cc2C)CC1 .
Return: 9.30

* * *

# Study Target: ALK tyrosine kinase receptor (Homo sapiens)
# Test Summary: Inhibition of N-terminal GST tagged human ALK cytoplasmic domain (1058 to 1620 residues) expressed in Sf21 cells at 20 nM incubated for 10 mins by mobility shift assay
# Sequence (Q9UM73 19-1620 limits assumed): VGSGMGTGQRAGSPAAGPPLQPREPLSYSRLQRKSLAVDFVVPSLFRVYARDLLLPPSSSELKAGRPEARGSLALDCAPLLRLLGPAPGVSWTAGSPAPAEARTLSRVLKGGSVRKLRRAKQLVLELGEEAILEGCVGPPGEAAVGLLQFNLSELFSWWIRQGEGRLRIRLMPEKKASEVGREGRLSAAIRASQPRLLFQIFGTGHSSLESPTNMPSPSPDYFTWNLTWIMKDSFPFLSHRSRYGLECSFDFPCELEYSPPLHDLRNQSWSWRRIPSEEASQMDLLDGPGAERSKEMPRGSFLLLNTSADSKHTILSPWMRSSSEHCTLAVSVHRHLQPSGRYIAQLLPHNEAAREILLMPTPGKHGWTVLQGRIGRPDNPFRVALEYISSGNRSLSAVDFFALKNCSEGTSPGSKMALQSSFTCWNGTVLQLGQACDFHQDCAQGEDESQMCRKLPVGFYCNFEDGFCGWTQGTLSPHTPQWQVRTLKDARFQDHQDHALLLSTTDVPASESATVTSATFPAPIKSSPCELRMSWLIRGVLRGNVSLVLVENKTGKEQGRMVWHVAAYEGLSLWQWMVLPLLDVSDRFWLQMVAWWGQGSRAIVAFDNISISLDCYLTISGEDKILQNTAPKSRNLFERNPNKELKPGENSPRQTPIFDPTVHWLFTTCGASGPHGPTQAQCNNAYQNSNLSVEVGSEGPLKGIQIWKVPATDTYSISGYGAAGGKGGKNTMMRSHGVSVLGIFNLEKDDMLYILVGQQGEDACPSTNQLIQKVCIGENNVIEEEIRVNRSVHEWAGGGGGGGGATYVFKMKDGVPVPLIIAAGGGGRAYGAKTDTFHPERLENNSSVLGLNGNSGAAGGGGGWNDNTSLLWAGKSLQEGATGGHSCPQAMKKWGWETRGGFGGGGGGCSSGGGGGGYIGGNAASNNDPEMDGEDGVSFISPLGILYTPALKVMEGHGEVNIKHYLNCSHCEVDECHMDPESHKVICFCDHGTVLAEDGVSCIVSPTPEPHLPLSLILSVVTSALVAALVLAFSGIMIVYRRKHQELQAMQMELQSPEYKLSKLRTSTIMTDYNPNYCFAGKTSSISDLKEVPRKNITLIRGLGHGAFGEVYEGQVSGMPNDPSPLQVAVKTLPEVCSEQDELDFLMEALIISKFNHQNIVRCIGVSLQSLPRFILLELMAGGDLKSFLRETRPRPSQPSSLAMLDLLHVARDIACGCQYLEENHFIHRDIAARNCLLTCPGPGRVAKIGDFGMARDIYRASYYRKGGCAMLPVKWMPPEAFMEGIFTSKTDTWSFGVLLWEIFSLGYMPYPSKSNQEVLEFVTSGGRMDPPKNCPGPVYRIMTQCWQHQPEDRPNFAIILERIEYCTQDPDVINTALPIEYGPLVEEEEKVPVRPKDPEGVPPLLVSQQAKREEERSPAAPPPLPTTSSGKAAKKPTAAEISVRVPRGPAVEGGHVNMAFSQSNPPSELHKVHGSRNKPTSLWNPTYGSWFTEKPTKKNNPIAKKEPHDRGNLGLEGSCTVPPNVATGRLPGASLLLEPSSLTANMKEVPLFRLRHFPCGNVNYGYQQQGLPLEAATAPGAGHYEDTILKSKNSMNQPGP
Activity calls are given as the source filed them. The rule behind the calls is not given here.

{"Structure String": "C=CC(=O)NCCCCCCCCNC(=O)CCN1CCC(c2cc(OC(C)C)c(Nc3ncc(Cl)c(Nc4ccccc4S(=O)(=O)C(C)C)n3)cc2C)CC1", "Study Target": "ALK tyrosine kinase receptor (Homo sapiens)", "inhibition": "Active"}
{"Structure String": "C=CC(=O)NCCCCCCNC(=O)CCN1CCC(c2cc(OC(C)C)c(Nc3ncc(Cl)c(Nc4ccccc4S(=O)(=O)C(C)C)n3)cc2C)CC1", "Study Target": "ALK tyrosine kinase receptor (Homo sapiens)", "inhibition": "Active"}
{"Structure String": "C=CC(=O)NCCOCCOCCOCCNC(=O)CCN1CCC(c2cc(OC(C)C)c(Nc3ncc(Cl)c(Nc4ccccc4S(=O)(=O)C(C)C)n3)cc2C)CC1", "Study Target": "ALK tyrosine kinase receptor (Homo sapiens)", "inhibition": "Active"}

* * *

# Test Summary: Cmax in Sprague-Dawley rat at […] measured upto 24 hrs by LC-MS/MS analysis
# Assay type: ADME, organism-based
# Design: route intravenous, dose 1 mg/kg, time <=24
# Reported Conditions: in vivo
Recorded Endpoint: Cmax (ng/mL)
Kindly provide the numeric value in ng/mL only, without the unit symbol.

Enquiry: Give a short answer stating reported Cmax for C=CC(=O)NCCOCCNC(=O)CCN1CCC(c2cc(OC(C)C)c(Nc3ncc(Cl)c(Nc4ccccc4S(=O)(=O)C(C)C)n3)cc2C)CC1 .
Return: 157
